- study-system: Cyclin-dependent kinase 2/cyclin E (Homo sapiens) (UniProt P24864+P24941+O96020)
- assay-context: at 10 µM
Let's look at some molecules and their measured residual activity.
// note: answer is a bare numeric in %

[
  {
    "input-smiles": "Cn1c2ccccc2c2c3c(c4c5ccccc5n(CCC#N)c4c21)CNC3=O",
    "observed": 12
  },
  {
    "input-smiles": "Fc1ccc(-c2nc3n(c2-c2ccncc2)CCS3)cc1",
    "observed": 94
  },
  {
    "input-smiles": "CCOC(=O)c1c(C)[nH]c(/C=C2\\C(=O)Nc3ccccc32)c1C",
    "observed": 95
  },
  {
    "input-smiles": "NC(=O)c1ccc(-c2nc(-c3ccc4c(c3)OCCO4)c(-c3ccccn3)[nH]2)cc1",
    "observed": 87
  },
  {
    "input-smiles": "CN(C)S(=O)(=O)c1ccc2c(c1)/C(=C/c1cc3c([nH]1)CCCC3)C(=O)N2",
    "observed": 97
  },
  {
    "input-smiles": "CCN1/C(=C/C(C)=O)Sc2ccc(OC)cc21",
    "observed": 76
  },
  {
    "input-smiles": "Nc1ncnc2c1c(-c1ccc(Oc3ccccc3)cc1)cn2C1CCCC1",
    "observed": 79
  }
]

Consider now this further molecule.
Task: Please give the documented residual activity of O=C1Cc2c([nH]c3ccc([N+](=O)[O-])cc23)-c2ccccc2N1
Result: 11
